target-or-system: human TLR7 (Homo sapiens, UniProt Q9NYK1)
Sequence (Q9NYK1 27-1049): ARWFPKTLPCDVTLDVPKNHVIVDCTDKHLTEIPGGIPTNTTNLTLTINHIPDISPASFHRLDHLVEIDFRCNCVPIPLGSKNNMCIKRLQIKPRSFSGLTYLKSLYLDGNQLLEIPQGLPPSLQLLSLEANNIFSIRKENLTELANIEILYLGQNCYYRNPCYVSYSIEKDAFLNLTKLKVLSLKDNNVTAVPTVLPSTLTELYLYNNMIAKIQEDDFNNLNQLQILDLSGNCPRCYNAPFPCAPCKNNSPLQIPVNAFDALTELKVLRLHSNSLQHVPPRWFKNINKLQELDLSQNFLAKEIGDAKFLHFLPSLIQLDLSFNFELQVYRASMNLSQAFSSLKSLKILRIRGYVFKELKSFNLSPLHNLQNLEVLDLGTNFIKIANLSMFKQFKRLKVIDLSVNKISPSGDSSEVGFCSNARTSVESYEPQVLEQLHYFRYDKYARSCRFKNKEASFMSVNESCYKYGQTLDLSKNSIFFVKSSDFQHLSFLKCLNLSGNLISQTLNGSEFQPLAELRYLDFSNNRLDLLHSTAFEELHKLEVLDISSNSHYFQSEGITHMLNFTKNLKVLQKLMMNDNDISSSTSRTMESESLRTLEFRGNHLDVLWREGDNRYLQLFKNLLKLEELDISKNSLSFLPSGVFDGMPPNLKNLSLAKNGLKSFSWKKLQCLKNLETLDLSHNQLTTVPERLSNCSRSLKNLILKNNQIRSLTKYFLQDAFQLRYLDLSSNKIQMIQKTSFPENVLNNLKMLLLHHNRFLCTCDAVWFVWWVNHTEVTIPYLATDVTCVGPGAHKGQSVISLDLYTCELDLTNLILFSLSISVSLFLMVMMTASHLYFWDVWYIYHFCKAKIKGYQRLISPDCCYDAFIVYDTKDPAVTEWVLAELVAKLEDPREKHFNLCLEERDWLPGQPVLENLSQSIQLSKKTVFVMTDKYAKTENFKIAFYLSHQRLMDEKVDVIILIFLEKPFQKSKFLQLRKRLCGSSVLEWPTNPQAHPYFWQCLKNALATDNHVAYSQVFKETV
assay-explanation: TLR7 inhibition reporter assay (HEK-Blue cells, SEAP reporter)
experimental-setup: HEK-Blue cells overexpressing human TLR7; stimulated with gardiquimod 7.5 μM; 22 hour incubation; SEAP readout
pIC50: −log10 of the molar value.
Where pIC50 equals or exceeds 5, the correct label is Fulfilled; where it does not, the label is Not fulfilled.

Problem: Evaluate COc1ccc(-c2cn3c(n2)CCC(C2CCN(C4CCN(C5CC5)CC4)CC2)C3)cc1OC (single isomer, unassigned) [Example 37] : pIC50 at minimum 5?
Solution: Fulfilled

Problem: Let us now turn to COc1ccc(-c2cn3c(n2)CCC(C2CCN(C4CCN(CC(C)C)CC4)CC2)C3)cc1OC (racemic) [Example 31]
Solution: Fulfilled

Problem: Cool, now `Cc1cc(C2CCN(C3CCN(C(C)C)CC3)CC2)cn2nc(-c3ccc(S(C)(=O)=O)cc3)nc12`
Solution: Fulfilled

Problem: Param item: `CC(C)CN1CCC(N2CCC(c3cn4cc(-c5ccc(S(C)(=O)=O)cc5)nc4cc3F)CC2)CC1`
Solution: Not fulfilled

Problem: Thanks! And COc1ccc(-c2cn3c(n2)CCC(C2CCN(C4CCN(CC5CC5)CC4)CC2)C3)cc1OC (single isomer, unassigned) [Example 56] ?
Solution: Fulfilled

Problem: Continue with COc1ccc(-c2cn3c(n2)CC[C@H](C2CCN(C4CC5CCC(C4)N5C(C)C)CC2)C3)cc1OC (single isomer, unassigned) [Example 134]
Solution: Not fulfilled

Problem: Okay, and CS(=O)(=O)c1ccc(-c2cn3cc(C4CCN(C5CC6CCC(C5)N6C5CCC5)CC4)cc(F)c3n2)cc1 (single isomer, unassigned) [Example 117] ?
Solution: Fulfilled

Problem: // query: CC(C)CN1C2CCC1CC(N1CCC([C@H]3CCc4nc(-c5ccc(S(C)(=O)=O)cc5)cn4C3)CC1)C2 (single isomer, unassigned) [Example 79]
Solution: Not fulfilled

Problem: // next record `CC(C)N1CCC(N2CCC(c3cc(F)c4nc(-c5ccc(S(C)(=O)=O)cc5)cn4c3)CC2)CC1`
Solution: Not fulfilled

Problem: Field entry: `CS(=O)(=O)c1ccc(-c2cn3cc(C4CCN(C5CCN(C6CCOCC6)CC5)CC4)cc(F)c3n2)cc1`
Solution: Fulfilled

Problem: Try this compound next: `CC(C)N1CCC(N2CCC(c3cn4cc(-c5ccc(S(C)(=O)=O)cc5)nc4cc3F)CC2)CC1`
Solution: Not fulfilled

Problem: Record: `Cc1cc(C2CCN(C3CCN(CC(C)C)CC3)CC2)cn2cc(-c3ccc(S(C)(=O)=O)cc3)nc12`
Solution: Fulfilled

Problem: Also check CC(C)N1C2CCC1CC(N1CCC(c3cc(F)c4nc(-c5ccc(S(C)(=O)=O)cc5)cn4c3)CC1)C2 (single isomer, unassigned) [Example 69]
Solution: Fulfilled

----------
target-or-system: human TLR8 (Homo sapiens, UniProt Q9NR97)
Sequence (Q9NR97 27-1041): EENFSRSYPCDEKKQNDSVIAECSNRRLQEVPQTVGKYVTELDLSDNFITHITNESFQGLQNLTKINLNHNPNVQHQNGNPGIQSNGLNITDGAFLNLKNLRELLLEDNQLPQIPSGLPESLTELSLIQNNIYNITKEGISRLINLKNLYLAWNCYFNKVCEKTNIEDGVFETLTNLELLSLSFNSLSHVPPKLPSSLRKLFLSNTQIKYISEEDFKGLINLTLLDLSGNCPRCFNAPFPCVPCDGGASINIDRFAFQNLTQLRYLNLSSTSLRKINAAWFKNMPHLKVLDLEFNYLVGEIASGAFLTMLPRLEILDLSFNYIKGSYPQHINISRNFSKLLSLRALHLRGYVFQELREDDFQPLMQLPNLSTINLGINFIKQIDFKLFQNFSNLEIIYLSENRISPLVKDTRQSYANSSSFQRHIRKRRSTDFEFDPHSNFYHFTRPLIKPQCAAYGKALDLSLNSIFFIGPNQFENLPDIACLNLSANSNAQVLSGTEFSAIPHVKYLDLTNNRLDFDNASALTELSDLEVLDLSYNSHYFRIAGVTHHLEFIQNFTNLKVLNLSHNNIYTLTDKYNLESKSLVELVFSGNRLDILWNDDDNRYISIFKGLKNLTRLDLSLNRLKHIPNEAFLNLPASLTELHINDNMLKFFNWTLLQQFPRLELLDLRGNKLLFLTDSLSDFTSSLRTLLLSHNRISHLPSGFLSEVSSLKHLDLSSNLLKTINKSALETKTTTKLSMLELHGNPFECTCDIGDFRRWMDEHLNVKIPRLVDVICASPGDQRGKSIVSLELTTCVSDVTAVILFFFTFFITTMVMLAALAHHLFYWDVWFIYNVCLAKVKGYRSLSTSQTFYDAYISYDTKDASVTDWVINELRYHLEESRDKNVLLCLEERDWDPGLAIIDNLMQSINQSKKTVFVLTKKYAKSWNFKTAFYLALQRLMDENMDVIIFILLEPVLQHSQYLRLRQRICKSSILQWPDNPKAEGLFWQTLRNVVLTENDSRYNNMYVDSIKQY
assay-explanation: TLR8 inhibition reporter assay (HEK-Blue cells, SEAP reporter)
experimental-setup: HEK-Blue cells overexpressing human TLR8; stimulated with R848 15.9 μM; 22 hour incubation; SEAP readout
pIC50: −log10 of the molar value.
endpoint: pIC50

Problem: Which pIC50 reading was recorded for the compound COc1ccc(-c2cn3c(n2)CCC(C2CCN(C4CC5(C4)CN(C(C)C)C5)CC2)C3)cc1OC (single isomer, unassigned) [Example 47] ?
Solution: < 4.30

Problem: Next record, please: `CC(C)N1CCC(N2CCC(c3ccn4cc(-c5ccc(S(C)(=O)=O)cc5)nc4c3F)CC2)CC1`
Solution: < 4.30

Problem: Now try `CC(C)CN1CCC(N2CCC(c3ccc4nc(-c5ccc(S(C)(=O)=O)cc5)cn4c3F)CC2)CC1` .
Solution: 4.78

Problem: Please give the result for COc1ccc(-c2cn3c(n2)CC[C@@H](C2CCN(C4CC5CCC(C4)N5C(C)C)CC2)C3)cc1OC (single isomer, unassigned) [Example 136] too.
Solution: < 4.60

Problem: How about COc1ccc(-c2cn3cc(C4CCN(C5CC6CCC(C5)N6CC(C)C)CC4)cc(C)c3n2)cc1OC (single isomer, unassigned) [Example 19] ?
Solution: < 4.30

Problem: Okay, and COc1ccc(-c2cn3c(n2)CCC(C2CCN(C4CCN(CC5CC5)CC4)CC2)C3)cc1OC (single isomer, unassigned) [Example 56] ?
Solution: < 4.30

Problem: Try `Cc1cc(-c2ccc(N3CCN(CC4CCC4)CC3)cc2)cn2cc(-c3ccc(S(C)(=O)=O)cc3)nc12` next.
Solution: 4.85
